Exercise: state measured protein stability index for each of the variants provided.
B1: BTBD1 (parent)
chain: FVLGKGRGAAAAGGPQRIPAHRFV

Variants of: B1
Test: protein stability index of a GFP-peptide fusion (GPS, HEK-293T) (PSI 1-6); higher = more stable;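 also: lentivirally expressed fusions sorted by FACS into six bins by GFP to DsRed ratio, PSI derived from sequencing read proportions per bin multiplied by bin number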
Details: c terminus: a fixed tail appended
Lab note: record the figure alone, no unit after it.

The measured protein stability index associated with I18Q reads 2.03

Just so you know, measured protein stability index for R7P came out at 1.98

get_value(item= L3T , readout=protein stability index) returns 2.01

Measured protein stability index of G4E : 1.94

response.value for V2Y (field: protein stability index) = 1.8

The variant K5M showed protein stability index equal to 2.82

// field: protein stability index; key: G13Y ; value = 1.57

Summary for this variant, A20G : protein stability index is 1.46

For record V24T the listed protein stability index is 2.84

Entry A9D — recorded protein stability index = 2.35

The measurements presented in this section are drawn from the supplement of paper PMC10567573.
